Data origin, for the record: patent US10899738B2

experimentalSystem: UniProtKB O00255
measurementProtocol: biochemical
Assay type: binding
conditions: FP competitive binding; menin protein 4 nM, FAM-MM2 probe 2 nM; read-out: Menin Binding Affinity IC50
parameter: pIC50
Worth noting: pIC50 values are minus log10 of concentrations stated in mol/L.

Worked cases, pIC50 given:
- compound: "CCS(=O)(=O)c1ccc(N2CC(CN3CCC(C4(C5CCCC5)CN(C)Cc5ccccc54)CC3)C2)cc1 (stereo not shown) [compound 69]"
  parameter: "pIC50"
  recordedValue: 7.52
- compound: "N#Cc1ccc(-c2ccc(N3CCC(C4(C5CCCC5)NCCc5ccccc54)CC3)cc2)cc1 (stereo not shown) [compound 77]"
  parameter: "pIC50"
  recordedValue: 2.59
- compound: "CNC(=O)O[C@@H]1CCC[C@H]1C(C#N)(c1ccccc1)C1CCN(CC2CN(c3ccc([N+](=O)[O-])cc3)C2)CC1 (mixture of isomers) [compound 384]"
  parameter: "pIC50"
  recordedValue: 5.34
- compound: "CNC(=O)O[C@@H]1CCC[C@H]1C(Cn1ccnc1C)(c1cccc(F)c1)C1CCN(CC2CN(c3ccc(Cl)cc3)C2)CC1 (mixture of isomers) [compound 414]"
  parameter: "pIC50"
  recordedValue: 6.27

Tested on UniProtKB O00255, the item CCN1Cc2ccccc2C(C2CCCC2)(C2CCN(CC3CN(c4ccc(S(=O)(=O)c5ccn(C)c5)cc4)C3)CC2)C1 (stereo not shown) [compound 101] showed pIC50 equal to 8.00

Tested on UniProtKB O00255, the item CC(=O)O[C@@H]1CCC[C@H]1C(C#N)(c1cccc(F)c1)C1CCN(CC2CN(c3ccc(CC(F)(F)F)cc3)C2)CC1 (mixture of isomers) [compound 420] showed pIC50 equal to 4.94

Tested on UniProtKB O00255, the item COC[C@H]1CCC[C@@H]1C(C#N)(c1ccccc1)C1CCN(CC2CN(c3ccc(S(=O)(=O)C4CC4)cc3)C2)CC1 (mixture of isomers) [compound 265] showed pIC50 equal to 5.31

Tested on UniProtKB O00255, the item CCS(=O)(=O)c1ccc(N2CC(C(=O)N3CCC(C4(C5CCCC5)NCCc5c(F)cccc54)CC3)C2)cc1 (stereo not shown) [compound 116] showed pIC50 equal to 5.22

Tested on UniProtKB O00255, the item CN1CCC(C2(C3CCCC3)NCCc3ccccc32)CC1 (stereo not shown) [compound 75] showed pIC50 equal to 3.85

Tested on UniProtKB O00255, the item N#CC(c1ccccc1)(C1CCN(CC2CN(c3ccc(S(=O)(=O)c4ccncc4)cc3)C2)CC1)[C@@H]1CCC[C@H]1OC(=O)C1CC1 (mixture of isomers) [compound 198] showed pIC50 equal to 6.07

---

experimentalSystem: menin protein (Homo sapiens (Human), UniProt O00255)
Sequence (O00255 whole entry): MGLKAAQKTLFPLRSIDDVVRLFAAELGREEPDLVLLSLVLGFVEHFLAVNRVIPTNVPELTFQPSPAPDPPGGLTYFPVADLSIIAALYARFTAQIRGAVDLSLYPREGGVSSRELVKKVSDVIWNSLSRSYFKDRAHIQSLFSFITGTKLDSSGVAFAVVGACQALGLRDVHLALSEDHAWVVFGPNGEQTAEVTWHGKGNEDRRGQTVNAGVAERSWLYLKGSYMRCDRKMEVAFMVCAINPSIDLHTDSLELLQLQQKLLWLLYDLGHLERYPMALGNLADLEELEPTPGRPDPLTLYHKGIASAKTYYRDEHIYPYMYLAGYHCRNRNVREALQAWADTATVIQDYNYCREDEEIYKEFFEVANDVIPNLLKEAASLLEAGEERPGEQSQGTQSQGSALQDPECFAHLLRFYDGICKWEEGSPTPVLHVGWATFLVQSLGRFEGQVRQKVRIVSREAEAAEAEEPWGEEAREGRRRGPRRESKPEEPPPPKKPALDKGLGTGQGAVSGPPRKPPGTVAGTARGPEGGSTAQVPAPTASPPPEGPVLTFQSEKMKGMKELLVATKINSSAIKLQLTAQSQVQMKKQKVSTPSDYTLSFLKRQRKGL
measurementProtocol: biochemical
Type: binding
conditions: FP competitive binding; menin protein 4 nM, FAM-MM2 probe 2 nM; read-out: Menin Binding Affinity IC50
parameter: pIC50
Worth noting: pIC50 values are minus log10 of concentrations stated in mol/L.

Worked cases, pIC50 given:
- compound: "CS(=O)(=O)CO[C@@H]1CCC[C@H]1C(C#N)(c1ccccc1)C1CCN(CC2CN(c3ccc(S(=O)(=O)c4ccncc4)cc3)C2)CC1 (mixture of isomers)"
  pIC50: 4.63
- compound: "N#Cc1ccc(OCCCN2CCC(C(C#N)(c3ccccc3)C3CCCC3)CC2)cc1 (stereo not shown)"
  pIC50: 5.89
- compound: "CCN1Cc2ccccc2C(C2CCN(CC3CN(c4ccc(S(=O)(=O)c5cnn(C)c5)cc4)C3)CC2)([C@H]2CCC[C@@H]2NC(C)=O)C1 (mixture of isomers)"
  pIC50: 7.96
- compound: "CNC(=O)O[C@@H]1CCC[C@H]1C(C#N)(c1ccccc1)C1CCN(CC2CN(c3ccc(S(=O)(=O)c4ccncc4)cc3)C2)CC1 (mixture of isomers)"
  pIC50: 6.40
- compound: "CCC(=O)O[C@H]1CCC[C@@H]1C(C#N)(c1ccccc1)C1CCN(CC2CN(c3ccc(S(=O)(=O)c4ccncc4)cc3)C2)CC1 (mixture of isomers)"
  pIC50: 8.00

// pIC50 lookup, compound = CNC(=O)O[C@H]1CCC[C@@H]1C(Cn1ccnc1)(c1ccccc1)C1CCN(CC2CN(c3ccc(S(=O)(=O)C4COC4)cc3)C2)CC1 (mixture of isomers) , result: 8.40

// pIC50 lookup, compound = CO[C@H]1CCC[C@@H]1C(C#N)(c1ccccc1)C1CCN(CCCOc2ccc(C#N)cc2)CC1 (stereo partly shown) , result: 4.61

// pIC50 lookup, compound = N#Cc1ccc(OCCCN2CCC(C(C#N)(CC(=O)N3CCCC3)c3ccccc3)CC2)cc1 (stereo not shown) , result: 4.40

// pIC50 lookup, compound = CC(=O)O[C@H]1CCC[C@@H]1C1(C2CCN(CC3CN(c4ccc(S(=O)(=O)C5CC5)cc4)C3)CC2)CN(C)Cc2ccc(F)cc21 (mixture of isomers) , result: 8.52

// pIC50 lookup, compound = CCN1Cc2ccccc2C(C2CCCC2)(C2CCN(CC3CN(c4ccc(S(=O)(=O)c5ccnc(C)c5)cc4)C3)CC2)C1 (stereo not shown) , result: 8.22

// pIC50 lookup, compound = CCc1nccn1CC(c1ccccc1)(C1CCN(CC2CN(c3ccc(C#N)cc3)C2)CC1)[C@@H]1CCC[C@H]1OC(=O)NC (mixture of isomers) , result: 6.94

// pIC50 lookup, compound = CNC(=O)N[C@H]1CCC[C@@H]1C1(C2CCN(CC3CN(c4ccc(S(=O)(=O)C5CC5)cc4)C3)CC2)CNCc2ccccc21 (mixture of isomers) , result: 8.05
